- Tested on: T1, full length recombinant human 2N4R tau (amino acids 1-441) (human, UniProt P10636 1-758)
- T1 construct: Bought (rPeptide); recombinant, non-phosphorylated; also called recombinant tau
- T1 sequence (P10636 other isoform, or with tags, fused parts or gaps limits assumed): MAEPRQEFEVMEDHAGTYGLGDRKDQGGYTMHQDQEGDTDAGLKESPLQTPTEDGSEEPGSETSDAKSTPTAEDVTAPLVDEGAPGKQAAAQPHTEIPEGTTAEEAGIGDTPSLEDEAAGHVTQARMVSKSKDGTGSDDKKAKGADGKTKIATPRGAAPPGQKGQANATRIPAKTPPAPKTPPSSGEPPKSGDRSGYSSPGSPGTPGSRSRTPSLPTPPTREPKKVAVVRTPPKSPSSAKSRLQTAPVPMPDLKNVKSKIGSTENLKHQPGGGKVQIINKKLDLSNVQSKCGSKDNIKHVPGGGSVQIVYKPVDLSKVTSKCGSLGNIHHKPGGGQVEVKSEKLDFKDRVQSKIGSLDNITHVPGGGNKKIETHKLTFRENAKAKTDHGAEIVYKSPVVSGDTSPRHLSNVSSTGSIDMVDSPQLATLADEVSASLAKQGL
- Assay remarks: SPR Biacore MCK, purified IgG on Protein A, tau analyte
Observed property: Relative KD (fold vs VH0VK0)
Report only the number, with the unit fold vs VH0VK0 understood.

# return recorded Relative KD for entry Clone 24 (VH3Vκ4), humanised variant of clone #28, human IgG1 (antibody, V domains shown, also called VH3VK4; VH3Vk4) VH: QVQLQESGPGLVKPSETLSLTCTVSGFSLNNYDMSWVRQAPGKGLEWIGTVSTTYRRYYASWAKGRFTISKTSSTTVDLQMTSLTAEDTATYFCAASGIWGRGTLVTVSS VL: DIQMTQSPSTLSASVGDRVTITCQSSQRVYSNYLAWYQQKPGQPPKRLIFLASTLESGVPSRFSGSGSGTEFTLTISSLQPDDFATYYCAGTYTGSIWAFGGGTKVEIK
0.69

# return recorded Relative KD for entry Clone #28 VH0VK0 chimeric human IgG1 (rabbit VH and VK of Clone 1) (antibody, V domains shown, also called VH0Vκ0; #28 VH0κ0) VH: QSLEESGGGLVKPGGTLTLTCTVSGFSLNNYDMSWVRQAPGKGLEWIGTVSTTYRRYYASWAKGRFTISKTSSTTVDLKMTSLTTEDTATYFCAASGIWGPGTLVTVSL VL: AQVLTQTTSPVSAAVGGTVTINCQSSQRVYSNYLAWYQQKPGQPPKRLIFLASTLESGVPSRFSGSGSGTQFTLTISDLECDDAATYYCAGTYTGSIWAFGGGTEVVVK
1

# return recorded Relative KD for entry Clone 27 (VH4Vκ2), humanised variant of clone #28, human IgG1 (antibody, V domains shown, also called VH4VK2; VH4Vk2) VH: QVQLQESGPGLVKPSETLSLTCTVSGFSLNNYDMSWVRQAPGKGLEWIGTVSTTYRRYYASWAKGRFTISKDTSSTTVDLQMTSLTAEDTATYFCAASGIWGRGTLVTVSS VL: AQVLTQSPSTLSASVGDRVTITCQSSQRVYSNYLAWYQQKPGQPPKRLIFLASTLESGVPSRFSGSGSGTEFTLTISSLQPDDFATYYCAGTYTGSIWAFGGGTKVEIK
1.77

# return recorded Relative KD for entry Clone 28 (VH4Vκ4), humanised variant of clone #28, human IgG1 (antibody, V domains shown, also called VH4VK4; VH4Vk4) VH: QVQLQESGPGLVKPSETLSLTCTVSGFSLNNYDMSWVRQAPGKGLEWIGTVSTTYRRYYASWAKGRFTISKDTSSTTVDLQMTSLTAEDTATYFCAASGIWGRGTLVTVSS VL: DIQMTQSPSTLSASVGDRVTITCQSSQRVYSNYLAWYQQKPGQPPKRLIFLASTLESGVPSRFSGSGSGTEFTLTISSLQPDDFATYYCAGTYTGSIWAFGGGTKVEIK
1.08
